Measured values drawn from patent US20080160035A1 for this set.

The following binders are shown together with reported Kd values.
Biological target: T1, monomeric hIL-4R (R&D Systems) (human, UniProt P24394 26-231)
T1 construct: Bought (R&D Systems); also called hIL-4R monomer
T1 sequence: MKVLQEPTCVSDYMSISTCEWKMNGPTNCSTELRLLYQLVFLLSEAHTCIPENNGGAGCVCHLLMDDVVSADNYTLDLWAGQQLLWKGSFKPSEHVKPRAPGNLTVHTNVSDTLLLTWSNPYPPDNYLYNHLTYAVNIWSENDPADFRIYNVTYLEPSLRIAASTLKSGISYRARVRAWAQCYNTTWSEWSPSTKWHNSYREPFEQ
Experiment: SPR (BIAcore 2000); antibody captured, monomeric hIL-4R injected
observation_type: Kd (nM)

>>> obs_value("VAB 15C8-17 (antibody, V domains shown, Apparently tested with mouse constant region (anti-mouse IgG capture/detection)) VH: QVQLVESGGGLVQPGGSLRLSCAVSGFTISDHYMSWIRQAPGKGLEWISYISSSGSKIYYADSVKGRFTISRDNAKNSLFLQMNSLRAEDTAVYYCARTRQLVGDYWGQGTLVTVSS VL: DIQLTQSPSFLSASVGDRVTITCWASQGISSYLAWYQQKPGKAPKLLIFAASTLQSGVPSRFSGSGSGTEFTLTISSLQPEDFATYYCQQLNSYPLTFGGGTKVEIR")
0.82
>>> obs_value("VAB 8G10-1 (antibody, V domains shown, Apparently tested with mouse constant region (anti-mouse IgG capture/detection)) VH: QVQLVQSGPEVKKPGASVKVSCKASGYTFTNYGISWVRQAPGQGLEWMGWISVYNGNINYAQKLQGRVTMTTDTSTSTAYMDLRSLRSDDTAVYYCARGSGYDFDYWGQGTLVTVSS VL: AIQMTQSPSSLSASVGDRVTITCRASQDIRNALGWYQQKPGKAPKLLIYAASSLQSGVPSRFSGSASGTDFTLTISSLQPEDFAAYYCLQDYNYPYTFGQGTKLEIK")
7.71
